Assay: protease stability score; higher = more stable; yeast display proteolysis, trypsin and chymotrypsin;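 further: relative to predicted unfolded state with 0 unfolded-like and 1 meaning tenfold more protease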
property-label: protease stability score
Output spec: single numeric token, no unit.

SEEKHMYKKLIEEWLKSVITGDEEHIQHLVDPDVRMTIIFENHELRAVGWEEVVRVLKEIRIKHFELRRWDDVNGRVHLDGQMTIQFNGQEHQTSTHIEIMFINGRVKEIRLIIT ... 0.986

Lab note: measured protease stability score of REDEEITHKLLELLLTVIRTGDEQEMLNLLDPNTRHDVNGKHLHGRETAHRLFHEWSRHMRIHDLEIHDEKKIGNKVHIDGRLDGHIDGKREKIEVEFVIVKIDGRWVINSMTIK was 0.931

Lab note: measured protease stability score of TEDERDMHEAMERHLQDLRTGNWEDVHRQVDPNVRLVFNGKEVHGREEYVEHTVRLAERADHIELRIRHIDTQGDKLRVEGELIIRQGDKTFIHEVELLFLKVNGRWIIHSFEIK was 1.55

Lab note: measured protease stability score of DEEEHNSQYAEELHIHLQETGDFEEFKKNVDPHVRLHSEINGKELRLHGRKIAEWLIEFWIKRIPNATIELHDSSIYNGKMHLDQRIKIGDKSMIVIVILEKVNGVWRVREMHITVR was 1.37

Lab note: measured protease stability score of KEEETHAREVSEANEHLLETGDWRRLSHLLDPNAKITINGRHFHGREFFTELQKRHEDMLGIKHRHIEDSTVVGDKVIIHTYYHVDGKTLDIEIIIVVINGRHERVEWRFK was 0.782

Lab note: measured protease stability score of DEDKEILKRAFEIYIQTVLTGDEDLFHEMADPHTRLETENETFIGREEVRRWMSEWRVDHIILKDFTAVNGRLVLRGEMDGTINGKRTHVTVTIIIHKVDGRWLLKSMSVE was 1.36

Lab note: measured protease stability score of REEEEEVKRNAHITVHILLTGDFHHHSRLFDPHVRSEWNGVELHGMEEDLKWWIELVKHLRFKHFEIHDIRVYDGVADNDINEVIKVNGKDFTFKSSIILIIINGQIRELKFVIN was 0.073

* * *

Assay: protease stability score; higher = more stable; yeast display proteolysis, trypsin and chymotrypsin;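 further: relative to predicted unfolded state with 0 unfolded-like and 1 meaning tenfold more protease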
Use 1 as the dividing line for protease stability score, with the line itself on the Y side and lower values as N.

Example cases with answers are listed next.
DEHEDNLQHLIHVMTELFITGDWKELRHLIDPNALLHINGKDVHGWHLALEHIVRWREEMGVKHSHVERIHLQGDKTHLHMREHFNGRTVELEIRIIFVNGRLESHEMRIRNN ... N
SEEEKTVKELVRLILHLLSTGDEEKWLHLADPNMRIEIDFNGKHVELHGREHVHWLLKQFKNARIEIELKHVHVYDGVAEITSILHYHQGDFHWHTESEVMVVVVDGRIKEISFRIR ... Y
DHREELLHRIYELWEMVQTTGDFEKLTDLLDPDVYVNINGRNLIGRELRIRFMREIRMEIKHYKHERFHFQGDKAHIHGRLDREINIGDKHHREDITIDVHLFVIDGVIRSFEIRLI ... Y
SDLEERSKSALHHLEEVLRTGDEDESRLMLDPNVRSVYDGREFHGRELVTELLSAFLKHLRIRDVKVERVEMNENEVRWDMKIDGTVGDKRYETHVHIIVVKVNGRWFLKEVRFG ... Y

q: Quick check, protease stability score >= 1? SEDVEFIVRFIERFWHLLLTGNEEEFEKLLDPHVRIEINGVNLVGREEVTDWFKHIRIDDMRMIFRHSSVVDGRVNVIGALRRDGHINGQRVTEERDTRLHLYKVNGQWFLTEIELH
a: Y

q: Quick check, protease stability score >= 1? SEEEDLMRHLTELYIRAFETGDEDHLRKLADPHVRLHVDIDGKRLDFHGMEQTSEWWERMGIDVHHLHHHEFIGDKSHIDSEVVFNGRKRKFEINVVIVNGRIKSERHIFK
a: N

q: Quick check, protease stability score >= 1? DEDKHVVEEFEKLMSHSMATGDEESLLRLADPNTRIVIGDKELHGMDLYLRWHVQHWRELGVDRVKVEVRVRDVRVVDGKVHVIGELIFRFDGRTQSHDVELEIVKINGKWVLKQINLK
a: Y

q: Quick check, protease stability score >= 1? DNTEENTRTLLELLKRVWRTGDWSQLDKLLDPNARAEINGVELHGREKVVEVFREELERLGVEYTDSRVKDMKVQGDKAIIDLELETEQGDKTHMHDLHIETRKVDGRWFVEHIIVH
a: Y

* * *

Assay: protease stability score; higher = more stable; yeast display proteolysis, trypsin and chymotrypsin;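 further: relative to predicted unfolded state with 0 unfolded-like and 1 meaning tenfold more protease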
property-label: protease stability score
Output spec: single numeric token, no unit.

Guide cases for protease stability score, answers given:
SEDEENVEKFVRELIHNSRTGDEEKFMSLLDPNTRIHVDGRTFHGMELASEALKLLGVKVFHVHRIKVVGEWAHVDGEVNFNGKDHKVSFHSRKVNGQWLLESVEIQ ... 1.22
SEDDERQRWIIEELVKTERTGDEHRRMELADPDYRLEIGDKEVHGMEEASRILHDELFNLGINHMHIKEWRVQGDKVHLEGLMVVGDKTHRVRIHYVIVNGRVKTLKWRID ... 1.33
SEWEHNLQRFIEELIEDARTGNEENIRENMDPDVRAEVDGQELHGREAQRFVRERIDVIKHNHLREIRFQGDFIHVRGELRGEVNGKEVHTDTHFVIWKFNGRWIIRHVLIR ... 1.03
EEEDRIFKEARRLLEYVSETGDETTLKKLVDPHARTHIGDKLLHGREWLHDLLRKAGEDRFHFIIHHVDLQGDKIQMFGQLVIGDKLIHVEIIVNKIDGRWFVESIKID ... 0.889
DETASRAAERYMKALQTGDPDEVVKQIDPNVHVRVGDKEVQGKEQFRKKQERDKKQARYHIKHVTFNVEGDKVRVDVIFRKHHNGQPRHDRMEQRMSVRGDKITHQENHKTG ... 0.172

Lab note: measured protease stability score of SEAEKRSEIILRLILHSLHTGDEHTLESLFDPNVRILIGDKELVGMEELSKLLRHIRIERVHIHLRDDRQQGDKADMDVELHRHGTFNGVRRDESSRIWIHAEKVDGRWVISEVIVH was 1.02

Lab note: measured protease stability score of TEQDEIAERVAREIMTMLLTGDWQRLRELADPHVRTIIDGVHVHGWDRMIEVLEVLHREIRIHDIREHSIKVYNGRVEIITHNDGEIDGQRVESSERHDIIIVNGRIKTIRLDIR was 1.34

Lab note: measured protease stability score of EEEKKETEHWIETFYRIINTGDEETWSKMADPDMRLEVLIDGKKLELHGRDAFEDFVSKMGFDHVHIHDMEVIGEKAHIHTELRYGDKHIRFEIQLVVVNGRYKSVTIRRK was 1.75

Lab note: measured protease stability score of DEHKEILREYAKKFLNDVMTGDEDEIEHLADPHARVEIGDKDIHGWEQWIKHLSRTWKELRIEDYRIRSIELVNGVVHLDTHLHIRIGDKRFDTQVEIHLVVINGKVKSVRVDIR was 1.12

Lab note: measured protease stability score of EDEKEFIERFARILLHARFTGDWKTLLELMDPNARITIEIGDKILEFHGMEQWIRENDKTEKKIKNITIHIEDMRIVNGVLEVDIHVHIGDKKYDFRIIVVVINGKVRQLEIKVE was 2.08

* * *

Experiment: protease stability score; higher = more stable; yeast display proteolysis, trypsin and chymotrypsin;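 further: relative to predicted unfolded state with 0 unfolded-like and 1 meaning tenfold more protease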
Use 1 as the dividing line for protease stability score, with the line itself on the yes (1) side and lower values as no (0).

DDHHEELRKFVEELSRARETGDEELIESLIDPHVKINVGDKRLHGRRAVEILLHEWRVHFFHSERMEVYGDKARIEGHMNGEYNGRRHETKLEMYVHKVNGKWILQHFTVE ... yes (1)
HESQEHDDRILDLFETLLRTGDWERLFQLADPHVRLRLHYGDKEIHQVGREEVVRMFLWWRERFGVDHFEVHEVRVVDGVNHIDGRLTVNGRNRRTEIVFIVVNGRIKEFEVRHR ... yes (1)
DEREEEAERIMRLFQEFERTGDEDMLRHLVDPDARWVVGDKFQHGWHHFHRLLHHLRVRDLKPKSLHIDVQGDKVEVILHQEMDGEINGKRVIYHVVVIIIVNKFNGRWRNETVEVRFH ... no (0)
REENEMLKRAIKHILRVLETGDFEDLSKMFDPHARLFFNGVLFMGRENVEHHWERERERYKNLRLHFRHVNYHVQGDKVFVEYHVDVTVGDKKWEVHFHFIVIKINGQWYNEDLEIEIR ... yes (1)

q: Quick check, protease stability score >= 1? SEEEDQARKIMEILIHVFLTGDWHQLMRLLDPNTRYEIRFENHEEHNHGREDIVRWLIEFIEEMRTLVIIRHIEVQGDKAILDIELQLDINGREFRWKTLLHFRIVDGVLKMYYIHIE
a: yes (1)

q: Quick check, protease stability score >= 1? DEEEELMRSFLRLWFEAMITGDEHTLKELIDPDVRIEQGDKTHHGWEEFLRKFHKIKNMTIRHVELNHEHVQGDKIDLIITLHGHINGRHEELEVRLHARKVDGRWKMTRIHYQ
a: yes (1)

q: Quick check, protease stability score >= 1? DERTKSYELALRIIEHVNKTGDEEMSTHMADPNARVVQGEKEIHGRELFIRWMKEIRVEDIKHRDKTIIGDKLILRVDIHGIIDGRHEDFHVILIVTKVNGRWHLEEVRIH
a: yes (1)

q: Quick check, protease stability score >= 1? DRDDEMTERALKEHIKNFRTGDFDKLLELADPNVRVDIDGREIHGRENFVKLVLKLMDDLGMKPEDVWVEHVNVFNGKVHMRIVLVTFYGDKRHINDTNVIATKFDGRWILKDVTMV
a: yes (1)

q: Quick check, protease stability score >= 1? SEDKEAFHRVMKLLLHAWRTGDEDREKELFDPNVRFIIGDKIIIGREEWLKLLRRIDHLEVDLDIKRLEVIGDKIKAEFRLHEILKIDGVEIHQEHEVRLHLHKINGRWIIERVHVE
a: no (0)

q: Quick check, protease stability score >= 1? SEEKEMLETWFLLLVESFETGDEELFEELADPRTRLVINGRHQHGREDINEWLHRVWHKLGAKHVSLDLHDMRVINGRIHSHFTLLIRIGDYTERRQVDLHMIIINGKVKHVEIRFR
a: yes (1)

q: Quick check, protease stability score >= 1? DDALRHADTLLDQFEHHMETGDEESMTRLADPDTRTDINGQHFHGRDWWREFMRRVDHHHIRSVDYHSVRLFNGQIHFDVEIDVEIVIGDKRYRTRYHFEVVIVKIDGRWLLHRIKTE
a: no (0)

q: Quick check, protease stability score >= 1? DEEKEKAKEFLHEWFRSLETGDEDLLTKLLDPNARMDINGQRFVGRHDIQRFISELREKIPNMQIDFHDQEMTDVNGVVQVDMRVDIHYGDKSSHHRLHVYVLKINGRWINKHIHVRTK
a: yes (1)

q: Quick check, protease stability score >= 1? SELERHAKEIAKIFSEVESTGDEDRMWELVDPDVRLHVGDKEFHGMEWVITLIREHLRHIRLKHVEITHIRVIDGRVDVDTRIHGIINGRELVTKSRIIIDKINGRWLVSSLKYE
a: yes (1)
